Origin of values: a melting point compilation (Tetko et al.; mined from patent text by program, amines drawn as free bases though some values may be those of a salt)

In this section, each of the molecules is paired with its reported melting point.

Please give the measured melting point for this molecule: COC(=O)Cc1c(C)n(-c2ccnc3ccccc23)c2ccc(OC)cc12
103 to 105 °C

----------
value-type: melting point

The cases that follow already have their melting point on record.
C=CCCC(O)=C(C#N)C(=O)Nc1ccc(C(F)(F)F)c(C)c1 : 133 °C
CCOc1cc2c(c3c1OC(C)(C)C3)C(c1ccccc1)=NC(C)(CN1C(=O)c3ccccc3C1=O)C2 (stereo not given) : 187 to 189 °C

Please give the measured melting point for this compound: CCCCc1nn(CC#N)c(=O)n1Cc1ccc(-c2ccccc2-c2nnn[nH]2)cc1
86 to 88 °C

Record: CC(C)c1cccc(F)c1NC(=S)NN
122 to 124 °C

Record: O=C(CCl)c1ccc2c(c1)Nc1ccccc1S2
190 to 191 °C

Record: COCC(=O)C1CCC2C3CCC4CC(OC(C)=O)CCC4(C)C3C(=O)CC12C (stereo not given)
93 °C

Record: Cc1cccc(C2(CCC(=O)O)NC(=O)NC2=O)c1 (stereo not given)
173 to 178 °C

Record: COC(=O)Cc1ccc(OCCNC(=O)OCc2ccccc2)c(F)c1
44 to 45 °C

Record: COc1c(N2CCC(n3ccnn3)C2)c(F)c(N)c2c(=O)c(C(=O)O)cn(C3CC3)c12 (stereo not given)
208 °C

Record: CC(=O)n1c(=O)n(-c2ccccc2)c(=O)n1C(C)=O
169 to 170 °C

----------
value-type: melting point

N#Cc1ccc(NC(=O)n2ccc3cc(Oc4cc(CC(N)=O)ncn4)ccc32)cc1C(F)(F)F : 204 to 209 °C
O=S(=O)(NC1CCCCC1)c1ccc(Cn2cnc3ccccc32)cc1 : 192 to 193 °C
Cc1nc(/C=C/c2cn(-c3ccccc3)nc2O)cs1 : 211 to 212 °C
Nc1ncccc1-c1nc2ccc(-c3ccncc3)nc2n1-c1ccc(CNC(=O)c2ccccc2)cc1 : 231 to 233 °C
COc1ccc(N2CCN(c3ccc(-n4c(C)nnc4S)cc3)CC2)cc1 : 260 °C
Cc1c(CCC#N)c2c(c(C(C)C)c1OCc1ccccc1)CC(C)(C)O2 : 158 to 159 °C

Please give the measured melting point for this compound: CCCN(C=Nc1ccc2nnc(-c3ncc([N+](=O)[O-])n3C)n2n1)CCC
155 to 157 °C

Record: CC(C)Cn1c(=O)n(C)c(=O)c2c(I)n(Cc3cccc4ccccc34)cc21
140 to 142 °C

Record: CC(c1ccc(-c2ccccc2)c(F)c1)c1nc(CCCl)no1 (centres undefined)
72 to 72.5 °C

----------
In this section, each of the compounds is paired with its reported melting point.

The cases that follow already have their melting point on record.
CCOc1ccc(C=Cc2ccc(OC(F)F)cc2)cc1 : 177 °C
O=S(Cc1ccccn1)c1cnc2ccccc2n1 (stereo not given) : 117 to 122 °C
COc1nc2ccccc2cc1N(C)C(=O)N1CCN(c2cc(C)cc(C)c2)CC1 : 142 to 143 °C
O=C1NCC(Cc2ccc(F)cc2)O1 (stereo not given) : 120 to 121 °C
COc1cc2oc(=O)c(C)c(C)c2cc1OCCN1CCN(c2cccc3[nH]ccc23)CC1 : 201 to 202 °C

Please give the measured melting point for this compound: CC(O)c1nccc(N2CCc3cc(-c4ccsc4)ccc3C2)n1 (stereo not given)
126 to 128 °C

Record: COC(=O)CC[C@H](NC(=O)OC(C)(C)C)C(=O)O
74 to 77 °C

Record: Cc1cc(N)cc(C)c1C(=O)Cc1ccccc1C(F)(F)F
168 °C

Record: CC(C)(C)OC(=O)N[C@H](CC(=O)OCc1ccccc1)C(=O)N[C@H](COC(=O)OCc1ccccc1)c1ccccc1
105 to 106 °C

Record: CCOC(=O)CNc1nc(C)c(C(=O)OCC)c(NC(C)CC)c1[N+](=O)[O-] (stereo not given)
43 to 45 °C
